Listed next: entries and their corresponding max activity.
assay: compound activity on host-cell Toxoplasma growth – dose response (AID 1259420); details: Toxoplasma gondii growth in host cells, no IFN-gamma; at 19.5 µM unless noted;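 note: host cells were HeLa; final incubation lasted 72 hours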
Hit rate of the full screen: of about 1,000 compounds, about 250 (25%) were called active. Roughly 31% stayed inconclusive and do not appear here. Not all results are given here. Potency and affinity values are given separately.

// solved cases for max activity follow
COMPOUND	max activity
c1ccc(-c2ccc([C@H]3[C@H]4CNC[C@@H]3N4Cc3cc(-c4ccccc4)on3)cc2)cc1	21.8% [at 21 µM] (inactive)
N#Cc1cccc(-c2ccc([C@@H]3[C@H]4CN(Cc5ccccc5F)CCCCN4[C@H]3CO)cc2)c1	-16.7% [at 0.6 µM] (inactive)
CCCNC(=O)N1C[C@@H]2N[C@H](C1)C2c1ccc(-c2cccc(F)c2)cc1 (some centres undefined)	16.2% [at 21 µM] (inactive)
CN1CCC(=C2c3ccccc3C=Cc3ccccc32)CC1	23.8% (inactive)
COc1ccccc1C#Cc1ccc([C@H]2[C@@H](CO)N3CCCCN(C(=O)C4CCC4)C[C@@H]23)cc1	-3.84% [at 0.16 µM] (inactive)
C/C=C/c1ccc(C2[C@@H]3CN(S(=O)(=O)c4cccc(OC)c4)C[C@H]2N3)cc1 (some centres undefined)	-10.6% [at 0.16 µM] (inactive)

I am curious: what max activity value has been reported for O=C(NCC1CC1)C1CN(C(=O)c2ccoc2)CC12CCOCC2 (centres undefined) ?
10.2% [at 0.16 µM] (inactive)

And then `C1=C(c2ccccc2)CC(c2ccccc2)=NN=C1c1ccccc1` , what is it?
-9.17% [at 10 µM] (inactive)

And then CC(=O)N1Cc2ncn(CC3CC3)c2C(COCC2CCOCC2)C1 (centres undefined) , what is it?
-7.3% [at 0.16 µM] (inactive)

* * *

test: compound activity on host-cell Toxoplasma growth – dose response (AID 1259420); details: Toxoplasma gondii growth in host cells, no IFN-gamma; at 19.5 µM unless noted;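 note: host cells were HeLa; final incubation lasted 72 hours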
Hit rate of the full screen: of about 1,000 compounds, about 250 (25%) were called active. Not shown: some 31% with an inconclusive outcome. The list is a sample of the results. Results with a measured potency or affinity are listed apart.
MEASUREMENT_KIND: max activity

// solved cases for max activity follow
COMPOUND	max activity
CN(C)CCN1CCC2(CCCN(C(=O)C3CCOC3)C2)C1=O (centres undefined)	31.3% (inactive)
O=C(c1cnccn1)N1CC(=O)N2[C@H](CO)[C@H](c3ccc(/C=C/c4ccccc4)cc3)[C@@H]2C1	9.53% [at 10 µM] (inactive)
CS(=O)(=O)N1CC(=O)N2[C@H](CO)[C@@H](c3ccc(Br)cc3)[C@H]2C1	4.03% (inactive)
Cc1ccccc1-c1ccc([C@H]2[C@H]3CN(S(=O)(=O)Cc4ccccc4)CCCCN3[C@H]2CO)cc1	24.5% (inactive)
Nc1c(-c2nnc(-c3ccccc3)o2)sc2nc(-c3ccccc3)cc(-c3ccccc3)c12	-6.07% [at 0.6 µM] (inactive)
COc1ccc(CN2C[C@@H]3CN(Cc4cnn(C)c4)C[C@H]3C2=O)cc1	-13% [at 10 µM] (inactive)

I am curious: what max activity value has been reported for `Cc1cnc(N2C[C@@H](c3ccccc3)[C@@]3(CCNC3=O)C2)nc1` ?
67.2% (inactive)

And then `O=C(C[C@H]1CC[C@@H]2[C@H](COC[C@H](O)CN2C(=O)c2cc(Cl)cc(Cl)c2)O1)N1CCc2ccccc2C1` , what is it?
6.12% [at 2.6 µM] (inactive)

And then Cc1ccccc1-c1ccc(C2[C@@H]3CN(Cc4cocn4)C[C@H]2N3)cc1 (some centres undefined) , what is it?
20.2% (inactive)

* * *

Listed next: entries and their corresponding max activity.
experiment: compound activity on host-cell Toxoplasma growth – dose response (AID 1259420); details: Toxoplasma gondii growth in host cells, no IFN-gamma; at 19.5 µM unless noted;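 note: host cells were HeLa; final incubation lasted 72 hours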
Hit rate of the full screen: of about 1,000 compounds, about 250 (25%) were called active. Not shown: some 31% with an inconclusive outcome. A selection follows. Results with a measured potency or affinity are listed apart.

// solved cases for max activity follow
MOLECULE	max activity
CC(C)CNC(=O)c1cc(-c2ccn(CC3CC3)n2)n2ccccc12	21.6% (inactive)
COc1ccccc1NC(=O)N1CC(=O)N2[C@H](C1)[C@@H](c1ccc(C#CC(C)C)cc1)[C@@H]2CO	-5.1% [at 5 µM] (inactive)
Cc1ccc(CN2CC[C@H]3CO[C@@H](CNC(=O)C4CC4)[C@@H]3C2)cc1	-26.4% [at 10 µM] (inactive)

I am curious: what max activity value has been reported for CC(=O)O[C@H]1C[C@@H](OC(C)=O)C(C)(C)C2C[C@@H](OC(C)=O)[C@@]3(C)C4=CC(=O)O[C@@H](c5ccoc5)[C@]4(C)CCC3[C@]21C (some centres not stated) ?
-6.69% [at 0.16 µM] (inactive)

And then Cc1cc2nc(CN3CCCC(CCc4ccc(F)cc4F)C3)cc(=O)n2[nH]1 (configuration not stated) , what is it?
5.72% (inactive)

And then `O=C(c1cccc(F)c1)N1CCCCN2[C@H](C1)[C@@H](c1ccc(C#CC3(O)CCCC3)cc1)[C@@H]2CO` , what is it?
13.2% (inactive)

And then `COc1ccc(C[C@H]2CN(C(=O)c3ccnn3C)CC[C@H]2OC)cc1` , what is it?
-12.6% [at 5 µM] (inactive)

And then `O=C(Nc1cccc(F)c1)N1CCCCN2[C@H](CO)[C@@H](c3ccc(C#Cc4cccnc4)cc3)[C@@H]2C1` , what is it?
5.46% [at 5 µM] (inactive)

And then `O=C(c1cnccn1)N1CC(=O)N2[C@H](CO)[C@H](c3ccc(-c4cccc(F)c4)cc3)[C@@H]2C1` , what is it?
-10.6% [at 0.3 µM] (inactive)

And then `O=C(c1cnccn1)N1CC(=O)N2[C@H](C1)[C@@H](c1ccc(-c3cccc(F)c3)cc1)[C@@H]2CO` , what is it?
25.6% (inactive)

And then `O=C(Nc1ccc(F)cc1)N1CC(=O)N2[C@H](CO)[C@@H](c3ccc(-c4cccc(F)c4)cc3)[C@H]2C1` , what is it?
13.4% (inactive)

And then `O=C(Nc1ccccc1F)N1CCCCN2[C@H](C1)[C@H](c1ccc(/C=C/c3ccccc3)cc1)[C@@H]2CO` , what is it?
13.2% (inactive)

And then `CC(C)(O)C#Cc1cccc(-c2n[nH]c(Cc3ccccc3)n2)c1` , what is it?
21.1% (inactive)

And then `CC(C)[C@H](CO)Nc1nc(Nc2ccc(C(=O)O)c(Cl)c2)c2ncn(C(C)C)c2n1` , what is it?
-10.3% [at 10 µM] (inactive)

And then CCc1c(C)sc2c1CCN(Cc1nc(-c3cccc(C)c3)oc1C)C2c1ccccc1 (configuration not stated) , what is it?
-7.44% [at 0.08 µM] (inactive)

And then `CC(C)CC#Cc1ccc([C@@H]2[C@@H](CO)N3CCCCN(C(=O)Nc4ccccc4)C[C@@H]23)cc1` , what is it?
7.18% [at 2.6 µM] (inactive)

And then `COc1ccccc1-c1ccc([C@@H]2[C@@H](CO)N3CCCCN(C(=O)c4cccnc4)C[C@@H]23)cc1` , what is it?
-4.65% [at 5 µM] (inactive)

* * *

Listed next: entries and their corresponding max activity.
experiment: compound activity on host-cell Toxoplasma growth – dose response (AID 1259420); details: Toxoplasma gondii growth in host cells, no IFN-gamma; at 19.5 µM unless noted;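 note: host cells were HeLa; final incubation lasted 72 hours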
Screen size: about 1,000 compounds; about 250 (25%) were called active. Inconclusive results (about 31%) are left out. Only a sample is shown. Potency and affinity values are given separately.

// solved cases for max activity follow
COMPOUND	max activity
O=S(=O)(c1ccccc1)N1CCCCN2[C@@H](CO)[C@@H](c3ccc(C#CC4CCCC4)cc3)[C@@H]2C1	18.8% [at 10 µM] (inactive)
C/C=C/c1ccc([C@H]2[C@@H](CO)N3CCCCN(S(=O)(=O)c4ccc(OC)cc4)C[C@H]23)cc1	19.6% (inactive)
O=S(=O)(c1ccccc1)N1CCCCN2[C@H](C1)[C@@H](c1ccc(C#CC3CCCC3)cc1)[C@@H]2CO	22.5% (inactive)
COc1cccc(NC(=O)N2CC(=O)N3[C@H](C2)[C@H](c2ccc(C#CCC4CCCC4)cc2)[C@@H]3CO)c1	38.8% [at 21 µM] (inactive)

I am curious: what max activity value has been reported for `O=S(=O)(c1ccccc1)N1CCCCN2[C@@H](CO)[C@H](c3ccc(C#CC4CCCC4)cc3)[C@@H]2C1` ?
49.6% (inactive)

And then `Cc1ccsc1C(=O)N1CCc2nc(-c3cnn(C)c3)nc(NC(C)C)c2C1` , what is it?
-6.87% (inactive)

And then `O=C(Nc1ccccc1)[C@@H]1[C@@H](CO)[C@@H]2Cn3c(ccc(C4=CCCCC4)c3=O)[C@@H]2N1Cc1cocn1` , what is it?
-11.6% [at 10 µM] (inactive)

And then CN(C)C(=O)CN1CCOCC2(CCN(CC3CCOC3)CC2)C1 (configuration not stated) , what is it?
12.7% (inactive)

And then `O=S(=O)(c1ccccc1)N1CCCCN2[C@H](CO)[C@@H](c3ccc(C#CC4CCCC4)cc3)[C@@H]2C1` , what is it?
39.2% (inactive)

And then `COc1cccc(NC(=O)N2CC(=O)N3[C@@H](CO)[C@@H](c4ccc(C#CCC5CCCC5)cc4)[C@@H]3C2)c1` , what is it?
9.07% [at 21 µM] (inactive)

And then `COc1cccc(S(=O)(=O)N2CCCCN3[C@H](CO)[C@@H](c4ccc(C#CCC(C)C)cc4)[C@@H]3C2)c1` , what is it?
-24.9% [at 0.038 µM] (inactive)

And then `COc1ccc(C#Cc2ccc([C@H]3[C@H]4CN(C(=O)NC(C)C)CC(=O)N4[C@H]3CO)cc2)cc1` , what is it?
13% [at 10 µM] (inactive)

And then `COc1ccc(-n2c(C)c([N+](=O)[O-])c3ccc(O)cc32)cc1` , what is it?
7.23% [at 1.2 µM] (inactive)

And then `COC[C@@H]1CN(CC2CC2)C[C@@]12CCN(CCc1ccccc1)C2` , what is it?
18.3% (inactive)

And then `Cc1ccccc1-c1ccc([C@@H]2[C@H](CO)N3C(=O)CN(C(=O)c4ccncc4)C[C@@H]23)cc1` , what is it?
13% (inactive)

And then `O=C(NC1CCCC1)N1CC[C@H]2CN(Cc3cccc(Cl)c3)S(=O)(=O)[C@@H]2CC1` , what is it?
-17.4% (inactive)

And then `COc1ccc(C#Cc2ccc([C@@H]3[C@H]4CN(C(=O)NC(C)C)CC(=O)N4[C@H]3CO)cc2)cc1` , what is it?
9.38% [at 0.6 µM] (inactive)

Source listed as PubChem BioAssay AID1259420.
